Species: Homo sapiens
experimental_protocol: Binding affinity to 15N-labeled RING1B (10 to 116 residues)/BMI1 (1 to 104 residues) (unknown origin) extracted from Escherichia coli BL21 (DE3) cells assessed as sum of A79, G83 and T89 chemical shift perturbations at 200 uM by NMR binding analysis
Entries and their Activity

compound: CCc1c(-c2cccc3[nH]ccc23)[nH]c(C(=O)O)c1-c1cccc2[nH]ccc12
Activity [Hz]: 163

compound: Cc1cc(-c2c(C(=O)O)[nH]c(-c3cc(F)cc4[nH]ccc34)c2C(C)C)c2cc[nH]c2c1
Activity [Hz]: 319

compound: CC(c1c(-c2cccc3[nH]ccc23)[nH]c(C(=O)O)c1-c1cccc2[nH]ccc12)C(F)F (stereo not drawn)
Activity [Hz]: 264

compound: CC(C)c1c(-c2cc(F)cc3[nH]ccc23)[nH]c(C(=O)O)c1-c1c(Cl)ccc2[nH]ccc12
Activity [Hz]: 299

compound: O=C(O)c1[nH]c(-c2cccc3[nH]ccc23)c(C2CC2)c1-c1cccc2[nH]ccc12
Activity [Hz]: 211

compound: CC(C)c1c(-c2cc(F)cc3[nH]ccc23)[nH]c(C(=O)O)c1-c1cc(C(F)(F)F)cc2[nH]ccc12
Activity [Hz]: 319

compound: COc1cc(-c2c(C(=O)O)[nH]c(-c3cc(F)cc4[nH]ccc34)c2C(C)C)c2cc[nH]c2c1
Activity [Hz]: 338

compound: CCc1cc(-c2c(C(=O)O)[nH]c(-c3cc(F)cc4[nH]ccc34)c2C(C)C)c2cc[nH]c2c1
Activity [Hz]: 309

* * *

experimental_protocol: Inhibition of 6His-tagged RING1B (10 to 116 residues)/BMI1 (1 to 104 residues) (unknown origin) extracted from Escherichia coli BL21 (DE3) cells preincubated with compound for 1 hrs followed by 3-(1-(4,26-dioxo-30-((3aS,4S,6aR)-2-oxohexahydro-1H-thieno[3,4-d]imidazol-4-yl)-7,10,13,16,19,22-hexaoxa-3,25-diazatriacontyl)-6-methoxy-1H-indol-4-yl)-5-(6-fluoro-1H-indol-4-yl)-4-isopropyl-1H-pyrrole-2-carboxylic acid addition and measured after 1 hrs by Alphascreen competition assay
Set-up: species or system Homo sapiens
Entries and their IC50

compound: CC(C)c1c(-c2cccc3[nH]ccc23)[nH]c(C(=O)O)c1-c1cccc2[nH]ccc12
IC50 [µM]: 3.6
//
compound: Cc1cc(-c2c(C(=O)O)[nH]c(-c3cc(F)cc4[nH]ccc34)c2C(C)C)c2cc[nH]c2c1
IC50 [µM]: 4.8
//
compound: CC(C)c1c(-c2cccc3[nH]ccc23)[nH]c(C(=O)O)c1-c1c(Cl)ccc2[nH]ccc12
IC50 [µM]: 2.9
//
compound: CC(c1c(-c2cccc3[nH]ccc23)[nH]c(C(=O)O)c1-c1cccc2[nH]ccc12)C(F)F (centres undefined)
IC50 [µM]: 8.2

* * *

Organism: Homo sapiens
experimental_protocol: Binding affinity to 15N-labeled RING1B (10 to 116 residues)/BMI1 (1 to 104 residues) (unknown origin) extracted from Escherichia coli BL21 (DE3) cells assessed as ratio of chemical shift perturbations at 1:2 compound concentration ration by NMR binding analysis
measurement_kind: Ratio

compound: CC(C)c1c(-c2cc(F)cc3[nH]ccc23)[nH]c(C(=O)O)c1-c1c(Cl)ccc2[nH]ccc12
recorded_measurement: 0.83
//
compound: CC(C)c1c(-c2cc(F)cc3[nH]ccc23)[nH]c(C(=O)O)c1-c1cc(F)cc2[nH]ccc12
recorded_measurement: 0.97
//
compound: CC(CF)c1c(-c2cccc3[nH]ccc23)[nH]c(C(=O)O)c1-c1cccc2[nH]ccc12 (stereo not drawn)
recorded_measurement: 0.78
//
compound: Cc1cc(-c2c(C(=O)O)[nH]c(-c3cc(F)cc4[nH]ccc34)c2C(C)C)c2cc[nH]c2c1
recorded_measurement: 0.82
//
compound: CCC(C)c1c(-c2cccc3[nH]ccc23)[nH]c(C(=O)O)c1-c1cccc2[nH]ccc12 (stereo not drawn)
recorded_measurement: 0.92
//
compound: CCOc1cc(-c2c(C(=O)O)[nH]c(-c3cc(F)cc4[nH]ccc34)c2C(C)C)c2cc[nH]c2c1
recorded_measurement: 0.95
//
compound: CC(C)c1c(-c2cc(F)cc3[nH]ccc23)[nH]c(C(=O)O)c1-c1cc(C(F)(F)F)cc2[nH]ccc12
recorded_measurement: 0.93
//
compound: CC(c1c(-c2cccc3[nH]ccc23)[nH]c(C(=O)O)c1-c1cccc2[nH]ccc12)C(F)F (stereo not drawn)
recorded_measurement: 0.81

This collection of values is drawn from ChEMBL document CHEMBL6096680.
